For each record, write down the corresponding Synergy Score SNU-C2B.
- Tested on: SNU-C2B
- Test Name: Drug combination screen (ATPlite, Synergy Score), SNU-C2B
- Applied Conditions: compound in combination with IgG1-hDR5-01-G56T-E430G + IgG1-hDR5-05-E430G; SNU-C2B; 72 hour ATPlite, 6x6 matrix
One number for each entry.

A selection of reference data follows.
# Molecule, Synergy Score SNU-C2B
rows = [
    ("COc1cc(C(=O)O)ccc1NC(=O)[C@@H]1N[C@@H](CC(C)(C)C)[C@](C#N)(c2ccc(Cl)cc2F)[C@H]1c1cccc(Cl)c1F", 10.4),
    ("Cn1cc(C2=C(c3ccc(Cl)cc3Cl)C(=O)NC2=O)c2ccccc21", 0.3),
    ("N.N.O=C([O-])C1(C(=O)[O-])CCC1.[Pt+2]", 11.6),
    ("Cn1c(Nc2ccc(C(F)(F)F)cc2)nc2cc(Oc3ccnc(-c4ncc(C(F)(F)F)[nH]4)c3)ccc21", 3.7),
    ("CC1(C)CCC(CN2CCN(c3ccc(C(=O)NS(=O)(=O)c4ccc(NCC5CCOCC5)c([N+](=O)[O-])c4)c(Oc4cnc5[nH]ccc5c4)c3)CC2)=C(c2ccc(Cl)cc2)C1", 0),
]

The following molecules each have a reported value; give each one's Synergy Score SNU-C2B.
1. C=CCc1cccc(/C=N/NC(=O)CN2CCN(Cc3ccccc3)CC2)c1O
2. COc1ccc(-c2ccc3c(N4CCOC[C@@H]4C)nc(N4CCOC[C@@H]4C)nc3n2)cc1CO
3. C=CC(=O)Nc1ccc2ncnc(Nc3ccc(OCc4cccc(F)c4)c(Cl)c3)c2c1

1. 6
2. 12.2
3. 0.7

Items follow; give Synergy Score SNU-C2B for each.
1. CO[C@H]1C[C@@H]2CC[C@@H](C)[C@@](O)(O2)C(=O)C(=O)N2CCCC[C@H]2C(=O)O[C@H]([C@H](C)C[C@@H]2CC[C@@H](OC(=O)C(C)(CO)CO)[C@H](OC)C2)CC(=O)[C@H](C)/C=C(\C)[C@@H](O)[C@@H](OC)C(=O)[C@H](C)C[C@H](C)/C=C/C=C/C=C/1C
2. CC1(C)CCC(c2ccc(Cl)cc2)=C(CN2CCN(c3ccc(C(=O)NS(=O)(=O)c4ccc(N[C@H](CCN5CCOCC5)CSc5ccccc5)c(S(=O)(=O)C(F)(F)F)c4)cc3)CC2)C1
3. CN(C)CC[C@H](CSc1ccccc1)Nc1ccc(S(=O)(=O)NC(=O)c2ccc(N3CCN(Cc4ccccc4-c4ccc(Cl)cc4)CC3)cc2)cc1[N+](=O)[O-]
4. CC(C)=CCC/C(C)=C/CC/C(C)=C/CSc1ccccc1C(=O)O

1. 4.5
2. 1
3. 1.1
4. 0.4

Provide Synergy Score SNU-C2B values for the following items, in order.
1. CC[C@H](NC(=O)[C@H](C)NC)C(=O)N1C[C@@H](O)C[C@H]1Cc1c(-c2[nH]c3cc(F)ccc3c2C[C@@H]2C[C@H](O)CN2C(=O)[C@H](CC)NC(=O)[C@H](C)NC)[nH]c2cc(F)ccc12 [Birinapant, reference compound]
2. CCc1c2c(nc3ccc(OC(=O)N4CCC(N5CCCCC5)CC4)cc13)-c1cc3c(c(=O)n1C2)COC(=O)[C@]3(O)CC [irinotecan, reference compound]
3. Cn1cnc2c(F)c(Nc3ccc(Br)cc3Cl)c(C(=O)NOCCO)cc21
4. Cc1ccc(C(=O)Nc2ccc(CN3CCN(C)CC3)c(C(F)(F)F)c2)cc1C#Cc1cnc2cccnn12
5. COCCNCc1ccc(-c2cc3nccc(Oc4ccc(NC(=S)NC(=O)Cc5ccc(F)cc5)cc4F)c3s2)nc1
6. Nc1cccc2c1C(=O)N(C1CCC(=O)NC1=O)C2=O (centres unmarked) [Pomalidomide]
7. C[C@@H]1C[C@H]2[C@@H]3CCC4=CC(=O)C=C[C@]4(C)[C@@]3(F)[C@@H](O)C[C@]2(C)[C@@]1(O)C(=O)CO

1: 37; 2: 13.4; 3: 0.6; 4: 1.8; 5: 3.1; 6: 0.5; 7: 0.8
